- Subject Of Test: VCAM-1/α4β1 integrin binding (Homo sapiens, UniProt P05556+P13612)
- Construct: Jurkat (ATCC TIB-152), known to express integrin α4β1; endogenous in cells
- Sequence (P13612 34-1032): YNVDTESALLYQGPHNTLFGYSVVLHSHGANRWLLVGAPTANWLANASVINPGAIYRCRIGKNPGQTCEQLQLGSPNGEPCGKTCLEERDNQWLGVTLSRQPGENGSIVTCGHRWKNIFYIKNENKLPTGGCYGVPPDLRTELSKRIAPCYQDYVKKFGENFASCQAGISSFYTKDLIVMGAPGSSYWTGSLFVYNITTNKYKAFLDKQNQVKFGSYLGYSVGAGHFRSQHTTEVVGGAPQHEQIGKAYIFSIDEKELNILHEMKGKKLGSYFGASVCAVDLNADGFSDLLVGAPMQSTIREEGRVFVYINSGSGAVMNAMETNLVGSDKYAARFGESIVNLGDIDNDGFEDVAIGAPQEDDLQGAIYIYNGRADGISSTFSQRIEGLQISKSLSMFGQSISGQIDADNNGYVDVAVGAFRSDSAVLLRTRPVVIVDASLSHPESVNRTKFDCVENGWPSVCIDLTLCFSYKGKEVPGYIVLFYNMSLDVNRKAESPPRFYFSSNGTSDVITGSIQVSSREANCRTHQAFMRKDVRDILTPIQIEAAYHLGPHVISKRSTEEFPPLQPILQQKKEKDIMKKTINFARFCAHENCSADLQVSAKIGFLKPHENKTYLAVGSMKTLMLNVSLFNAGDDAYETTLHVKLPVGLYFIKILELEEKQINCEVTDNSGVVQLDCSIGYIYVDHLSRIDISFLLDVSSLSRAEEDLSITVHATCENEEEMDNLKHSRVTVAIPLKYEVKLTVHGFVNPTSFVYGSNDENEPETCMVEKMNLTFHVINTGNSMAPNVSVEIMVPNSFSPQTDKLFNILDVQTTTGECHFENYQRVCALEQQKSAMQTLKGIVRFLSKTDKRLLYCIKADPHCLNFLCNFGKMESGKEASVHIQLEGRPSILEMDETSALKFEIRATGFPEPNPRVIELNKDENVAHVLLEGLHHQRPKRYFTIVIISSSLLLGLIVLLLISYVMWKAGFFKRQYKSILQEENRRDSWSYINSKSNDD
- Sequence (P05556 21-798): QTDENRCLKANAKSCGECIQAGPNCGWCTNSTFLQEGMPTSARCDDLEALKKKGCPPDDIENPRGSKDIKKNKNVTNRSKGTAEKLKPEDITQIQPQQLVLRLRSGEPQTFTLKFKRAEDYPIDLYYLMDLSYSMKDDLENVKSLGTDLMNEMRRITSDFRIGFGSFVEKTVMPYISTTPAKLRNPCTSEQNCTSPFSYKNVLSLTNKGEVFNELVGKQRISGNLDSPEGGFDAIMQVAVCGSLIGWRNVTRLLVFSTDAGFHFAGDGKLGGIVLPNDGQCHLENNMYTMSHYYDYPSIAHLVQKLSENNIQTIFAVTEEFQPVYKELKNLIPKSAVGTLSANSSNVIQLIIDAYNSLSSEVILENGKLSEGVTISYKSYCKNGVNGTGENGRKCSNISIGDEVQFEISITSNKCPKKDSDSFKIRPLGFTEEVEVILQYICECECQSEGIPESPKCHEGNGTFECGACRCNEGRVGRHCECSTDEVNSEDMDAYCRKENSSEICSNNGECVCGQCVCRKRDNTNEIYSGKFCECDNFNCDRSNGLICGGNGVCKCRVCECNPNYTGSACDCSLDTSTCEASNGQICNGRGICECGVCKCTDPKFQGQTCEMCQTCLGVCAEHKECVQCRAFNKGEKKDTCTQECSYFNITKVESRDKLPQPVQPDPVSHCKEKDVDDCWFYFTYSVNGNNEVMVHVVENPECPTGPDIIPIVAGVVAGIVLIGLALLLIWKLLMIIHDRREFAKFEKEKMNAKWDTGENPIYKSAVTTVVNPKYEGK
- Assay Method Text: Assay of antagonistic activity to VCAM-1/α4β1 integrin binding under the existence of blood serum (Jurkat cell adhesion to VCAM-1/Fc)
- Study Conditions: Jurkat cells, recombinant human VCAM-1/Fc, 50% human blood serum
pIC50: −log10 of the molar value.
Measure: pIC50

# annotated cases, reported pIC50 shown
Cc1nccn1-c1cc2c(cc1F)c(=O)n(-c1ccc(C[C@H](NC(=O)c3c(Cl)cccc3Cl)C(=O)O)cc1)c(=O)n2C | 8.03
CCNCCCc1ccc2c(c1)c(=O)n(-c1ccc(C[C@H](NC(=O)c3c(Cl)cccc3Cl)C(=O)O)cc1)c(=O)n2C | 7.87
CN(C)CCN(C)c1cc2c(cc1F)c(=O)n(-c1ccc(C[C@H](NC(=O)c3c(Cl)cccc3Cl)C(=O)O)cc1)c(=O)n2C | 8.26

I. CCNCc1ccc2c(=O)n(-c3ccc(C[C@H](NC(=O)c4c(Cl)cccc4Cl)C(=O)O)cc3)c(=O)n(C)c2c1
II. CCNc1ccc2c(=O)n(-c3ccc(C[C@H](NC(=O)c4c(Cl)cccc4Cl)C(=O)O)cc3)c(=O)n(C)c2c1
III. Cn1c(=O)n(-c2ccc(C[C@H](NC(=O)c3c(Cl)cccc3Cl)C(=O)O)cc2)c(=O)c2cc(S(C)(=O)=O)ccc21
List items by pIC50 in falling order. Lab note: record answer as labels in requested order. I, III, II
(I: 8.15, III: 7.91, II: 7.63)

###

- Subject Of Test: VCAM-1/α4β1 integrin binding (Homo sapiens, UniProt P05556+P13612)
- Construct: Jurkat (ATCC TIB-152), known to express integrin α4β1; endogenous in cells
- Assay Method Text: Assay of antagonistic activity to VCAM-1/α4β1 integrin binding under the existence of blood serum (Jurkat cell adhesion to VCAM-1/Fc)
- Study Conditions: Jurkat cells, recombinant human VCAM-1/Fc, 50% human blood serum
Measure: IC50 (nM)

1. CCN(CC)Cc1ccc2c(=O)n(-c3ccc(C[C@H](NC(=O)c4c(Cl)cccc4Cl)C(=O)O)cc3)c(=O)n(C)c2c1 [Example 146]
2. CC(C)CCNCc1ccc2c(c1)c(=O)n(-c1ccc(C[C@H](NC(=O)c3c(Cl)cccc3Cl)C(=O)O)cc1)c(=O)n2C [Example 196]
3. Cn1c(=O)n(-c2ccc(C[C@H](NC(=O)c3c(Cl)cccc3Cl)C(=O)O)cc2)c(=O)c2cc(CN3CCCC3)ccc21 [Example 56]
Arrange by IC50, high to low. Lab note: record answer as labels in requested order. 3, 1, 2
(3: 13.1 nM, 1: 7.9 nM, 2: 5.3 nM)

###

- Subject Of Test: VCAM-1/α4β1 integrin binding (Homo sapiens, UniProt P05556+P13612)
- Construct: Jurkat (ATCC TIB-152), known to express integrin α4β1; endogenous in cells
- Assay Method Text: Assay of antagonistic activity to VCAM-1/α4β1 integrin binding under the existence of blood serum (Jurkat cell adhesion to VCAM-1/Fc)
- Study Conditions: Jurkat cells, recombinant human VCAM-1/Fc, 50% human blood serum
pIC50: −log10 of the molar value. Where a name gives a salt, the structure may show the parent alone.
Measure: pIC50

# annotated cases, reported pIC50 shown
Cn1c(=O)n(-c2ccc(C[C@H](NC(=O)c3c(Cl)cccc3Cl)C(=O)O)cc2)c(=O)c2cc(CNC3CC3)ccc21 [Example 192] | 7.75
CN(C)C1CCN(c2ccc3c(c2)c(=O)n(-c2ccc(C[C@H](NC(=O)c4c(Cl)cccc4Cl)C(=O)O)cc2)c(=O)n3C)C1 (some centres unmarked) [Example 6] | 8.05
CCCNCc1ccc2c(=O)n(-c3ccc(C[C@H](NC(=O)c4c(Cl)cccc4Cl)C(=O)O)cc3)c(=O)n(C)c2c1 [Example 145] | 8.42

1. CN(C)CCOc1ccc2c(c1)c(=O)n(-c1ccc(C[C@H](NC(=O)c3c(Cl)cccc3Cl)C(=O)O)cc1)c(=O)n2C [Example 142]
2. Cn1c(=O)n(-c2ccc(C[C@H](NC(=O)c3c(Cl)cccc3Cl)C(=O)O)cc2)c(=O)c2ccc(N3CCOCC3)cc21 [Example 39, trifluoroacetate]
When their pIC50 values are compared, which is larger, 1 or 2 ? Indicate your choice by writing its label. 2

###

- Subject Of Test: VCAM-1/α4β1 integrin binding (Homo sapiens, UniProt P05556+P13612)
- Construct: Jurkat (ATCC TIB-152), known to express integrin α4β1; endogenous in cells
- Assay Method Text: Assay of antagonistic activity to VCAM-1/α4β1 integrin binding under the existence of blood serum (Jurkat cell adhesion to VCAM-1/Fc)
- Study Conditions: Jurkat cells, recombinant human VCAM-1/Fc, 50% human blood serum
Where a name gives a salt, the structure may show the parent alone.
Measure: IC50 (nM)

# annotated cases, reported IC50 shown
Cn1c(=O)n(-c2ccc(C[C@H](NC(=O)c3c(Cl)cccc3Cl)C(=O)O)cc2)c(=O)c2ccc(CN3CCCC3)cc21 [Example 35, trifluoroacetate] | 7.9
CCN(CC)CCN(C)c1ccc2c(c1)c(=O)n(-c1ccc(C[C@H](NC(=O)c3c(Cl)cccc3Cl)C(=O)O)cc1)c(=O)n2C [Example 5] | 10.8
CNCCc1ccc2c(c1)c(=O)n(-c1ccc(C[C@H](NC(=O)c3c(Cl)cccc3Cl)C(=O)O)cc1)c(=O)n2C [Example 230] | 11.7
CCN(CC)Cc1ccc2c(c1)c(=O)n(-c1ccc(C[C@H](NC(=O)c3c(Cl)cccc3Cl)C(=O)O)cc1)c(=O)n2C [Example 55] | 14.2

I. CN(C)Cc1ccc2c(=O)n(-c3ccc(C[C@H](NC(=O)c4c(Cl)cccc4Cl)C(=O)O)cc3)c(=O)n(C)c2c1.O=C(O)C(F)(F)F [Example 34, Trifluoroacetate]
II. CCCNCCCc1ccc2c(c1)c(=O)n(-c1ccc(C[C@H](NC(=O)c3c(Cl)cccc3Cl)C(=O)O)cc1)c(=O)n2C [Example 209]
Hi! Which is lower in terms of IC50, the first one I or the second one II ? Indicate your choice by writing its label. I

###

- Subject Of Test: VCAM-1/α4β1 integrin binding (Homo sapiens, UniProt P05556+P13612)
- Construct: Jurkat (ATCC TIB-152), known to express integrin α4β1; endogenous in cells
- Assay Method Text: Assay of antagonistic activity to VCAM-1/α4β1 integrin binding under the existence of blood serum (Jurkat cell adhesion to VCAM-1/Fc)
- Study Conditions: Jurkat cells, recombinant human VCAM-1/Fc, 50% human blood serum
Measure: IC50 (nM)

CC(C)NCc1ccc2c(c1)c(=O)n(-c1ccc(C[C@H](NC(=O)c3c(Cl)cccc3Cl)C(=O)O)cc1)c(=O)n2C | 6.9

A. CCc1nccn1-c1cc2c(cc1F)c(=O)n(-c1ccc(C[C@H](NC(=O)c3c(Cl)cccc3Cl)C(=O)O)cc1)c(=O)n2C
B. COCc1ccc2c(=O)n(-c3ccc(C[C@H](NC(=O)c4c(Cl)cccc4Cl)C(=O)O)cc3)c(=O)n(C)c2c1
When their IC50 values are compared, which is larger, A or B ? Indicate your choice by writing its label. A
(A: 16.5 nM, B: 10.8 nM)

A. Cn1c(=O)n(-c2ccc(C[C@H](NC(=O)c3c(Cl)cccc3Cl)C(=O)O)cc2)c(=O)c2cc(CN3CCCCC3)ccc21
B. Cn1c(=O)n(-c2ccc(C[C@H](NC(=O)c3c(Cl)cccc3Cl)C(=O)O)cc2)c(=O)c2cc(CO)ccc21
Hi! Which is lower in terms of IC50, the first one A or the second one B ? Indicate your choice by writing its label. A

###

- Subject Of Test: VCAM-1/α4β1 integrin binding (Homo sapiens, UniProt P05556+P13612)
- Construct: Jurkat (ATCC TIB-152), known to express integrin α4β1; endogenous in cells
- Assay Method Text: Assay of antagonistic activity to VCAM-1/α4β1 integrin binding under the existence of blood serum (Jurkat cell adhesion to VCAM-1/Fc)
- Study Conditions: Jurkat cells, recombinant human VCAM-1/Fc, 50% human blood serum
pIC50: −log10 of the molar value.
Measure: pIC50

CNCCCOc1ccc2c(c1)c(=O)n(-c1ccc(C[C@H](NC(=O)c3c(Cl)cccc3Cl)C(=O)O)cc1)c(=O)n2C [Example 226] | 8.04
CCNCc1ccc2c(c1)c(=O)n(-c1ccc(C[C@H](NC(=O)c3c(Cl)cccc3Cl)C(=O)O)cc1)c(=O)n2C [Example 54] | 7.84

A. CC(C)N(C)Cc1ccc2c(c1)c(=O)n(-c1ccc(C[C@H](NC(=O)c3c(Cl)cccc3Cl)C(=O)O)cc1)c(=O)n2C [Example 199]
B. CCN(C)c1ccc2c(c1)c(=O)n(-c1ccc(C[C@H](NC(=O)c3c(Cl)cccc3Cl)C(=O)O)cc1)c(=O)n2C [Example 139]
When their pIC50 values are compared, which is larger, A or B ? Indicate your choice by writing its label. B
(B: 8.08, A: 7.74)

Source: patent US7345049B2
